- target_or_test_system: α3β4*-nAChR (Mus musculus, UniProt Q8R493+Q8R4G9)
- Sequence (Q8R4G9 26-499): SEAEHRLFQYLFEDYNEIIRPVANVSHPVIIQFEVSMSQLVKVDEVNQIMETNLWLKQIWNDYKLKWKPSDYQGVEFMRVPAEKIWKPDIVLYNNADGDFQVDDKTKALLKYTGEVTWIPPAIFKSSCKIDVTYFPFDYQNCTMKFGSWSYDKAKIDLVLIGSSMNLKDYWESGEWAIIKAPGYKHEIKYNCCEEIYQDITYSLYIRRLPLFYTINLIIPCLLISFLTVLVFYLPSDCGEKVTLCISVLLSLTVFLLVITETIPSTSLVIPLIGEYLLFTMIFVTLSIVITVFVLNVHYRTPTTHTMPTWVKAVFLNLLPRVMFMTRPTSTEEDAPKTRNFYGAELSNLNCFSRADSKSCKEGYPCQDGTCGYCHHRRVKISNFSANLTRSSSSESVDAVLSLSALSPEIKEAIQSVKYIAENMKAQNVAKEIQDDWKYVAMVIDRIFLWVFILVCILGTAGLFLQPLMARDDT
- Sequence (Q8R493 21-495): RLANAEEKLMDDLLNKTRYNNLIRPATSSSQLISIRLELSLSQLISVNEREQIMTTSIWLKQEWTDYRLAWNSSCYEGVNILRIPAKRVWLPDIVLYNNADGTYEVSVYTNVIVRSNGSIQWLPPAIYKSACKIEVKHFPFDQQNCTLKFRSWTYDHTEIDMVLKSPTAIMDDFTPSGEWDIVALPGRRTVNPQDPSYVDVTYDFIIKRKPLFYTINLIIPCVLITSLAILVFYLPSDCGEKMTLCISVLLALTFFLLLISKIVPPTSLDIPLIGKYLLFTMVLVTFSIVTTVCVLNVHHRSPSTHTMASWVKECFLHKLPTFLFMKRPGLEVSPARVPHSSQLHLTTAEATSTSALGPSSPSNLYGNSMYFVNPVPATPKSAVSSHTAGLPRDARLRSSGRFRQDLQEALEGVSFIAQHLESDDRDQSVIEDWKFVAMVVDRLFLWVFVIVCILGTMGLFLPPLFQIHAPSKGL
- measurement_protocol: [3H]-ACh release from IPN synaptosomes
- Type: biochemical
- assay_setup: read-out: Ki α3β4* (marked #)
quantity: Ki
Express the reported value numerically, then name its unit.

[ask] Endpoint output: Ki of c1ccc(-c2cncc(C3CC4CCN3CC4)c2)cc1 (stereo not shown) . Value?
[reply] 660 nM

====

- target_or_test_system: α4β2*-nAChR (Mus musculus, UniProt O70174+Q9ERK7)
- Sequence (O70174 31-629): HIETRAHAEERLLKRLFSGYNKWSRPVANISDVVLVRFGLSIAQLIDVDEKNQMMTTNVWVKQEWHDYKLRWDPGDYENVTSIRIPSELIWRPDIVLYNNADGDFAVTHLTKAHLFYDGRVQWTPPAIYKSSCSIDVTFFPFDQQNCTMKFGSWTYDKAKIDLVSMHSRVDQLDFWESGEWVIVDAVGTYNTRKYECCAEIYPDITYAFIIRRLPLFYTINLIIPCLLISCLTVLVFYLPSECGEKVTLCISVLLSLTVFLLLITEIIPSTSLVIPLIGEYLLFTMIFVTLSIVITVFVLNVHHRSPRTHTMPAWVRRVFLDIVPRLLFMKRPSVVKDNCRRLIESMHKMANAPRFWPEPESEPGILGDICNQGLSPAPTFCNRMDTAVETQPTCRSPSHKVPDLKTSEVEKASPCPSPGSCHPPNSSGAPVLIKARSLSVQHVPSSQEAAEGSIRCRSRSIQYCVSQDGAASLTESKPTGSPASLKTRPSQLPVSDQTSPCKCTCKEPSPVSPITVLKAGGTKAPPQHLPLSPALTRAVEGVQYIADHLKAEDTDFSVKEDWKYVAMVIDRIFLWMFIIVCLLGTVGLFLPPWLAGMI
- Sequence (Q9ERK7 26-501): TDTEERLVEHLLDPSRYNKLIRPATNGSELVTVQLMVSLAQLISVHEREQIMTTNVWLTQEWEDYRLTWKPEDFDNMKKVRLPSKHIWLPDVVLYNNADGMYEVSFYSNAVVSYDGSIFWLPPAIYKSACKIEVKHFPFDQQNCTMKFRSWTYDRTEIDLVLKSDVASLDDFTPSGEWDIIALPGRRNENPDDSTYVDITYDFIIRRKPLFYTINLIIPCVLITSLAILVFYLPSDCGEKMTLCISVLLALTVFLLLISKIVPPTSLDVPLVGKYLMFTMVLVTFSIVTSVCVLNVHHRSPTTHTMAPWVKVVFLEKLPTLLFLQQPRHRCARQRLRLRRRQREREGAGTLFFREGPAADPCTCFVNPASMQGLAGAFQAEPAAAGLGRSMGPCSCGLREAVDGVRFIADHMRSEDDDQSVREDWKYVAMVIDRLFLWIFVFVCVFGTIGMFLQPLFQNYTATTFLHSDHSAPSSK
- measurement_protocol: α-CtxMII-resistant [3H]-dopamine release from striatal synaptosomes
- Format: biochemical
- assay_setup: Ki α4β2* (1st number, [3H]DA release assay, marked #)
quantity: pKi
# pKi = -log10(concentration in molar units)

Solved entries:
- compound: "CNC(C)C/C=C/c1cncc(C#Cc2ccccc2)c1 (stereo not shown)"
  pKi: 5.41
- compound: "c1cncc(C2C3CC4CC(C3)CN2C4)c1 (stereo not shown)"
  pKi: 7.11
- compound: "N#Cc1ccc(Oc2cncc(C3CC4CCN3CC4)c2)cc1 (stereo not shown)"
  pKi: 7.18

Attention now turns to another entry.
[ask] Endpoint output: pKi of c1cncc(C2CCC3CCN2CC3)c1 (stereo not shown) . Value?
[reply] 7.85
